MEASURED TARGET: T1, human VEGF (human, UniProt P15692-4 27-191)
T1 construct: Bought recombinant protein; also called hVEGF; human VEGF-A
T1 sequence (P15692 other isoform, or with tags, fused parts or gaps limits assumed): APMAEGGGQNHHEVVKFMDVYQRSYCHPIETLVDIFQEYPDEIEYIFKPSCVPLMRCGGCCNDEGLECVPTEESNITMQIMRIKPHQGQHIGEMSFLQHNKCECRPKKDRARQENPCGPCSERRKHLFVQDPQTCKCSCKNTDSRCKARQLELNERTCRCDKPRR
ASSAY SUMMARY: SPR (BIAcore X100), VEGF on CM5 chip, IgG injected, 1:1 Langmuir
ENDPOINT: kon (M⁻¹ s⁻¹)
Report the value in M⁻¹ s⁻¹ with no unit label.

GET /values?readout=kon&item= HF2-1 (antibody, V domains shown, also called HF-1) VH: EVQLVESGGGLVQPGGSLRLSCAASNFVFRSHGMQWVRQAPGKGLEYVAGISSDGSWTGYGAAVEGRFTISRDDSKNTAYLQMNSLRAEDTAVYYCARDFSTGYGADSIDAWGQGTLVTVSS VL: DIQMTQSPSSLSASVGDRVTITCSGGSDSAYGYGWYQQKPGKAPKTLIYWDDKRPSGVPSRFSGSRSGTDFTLTISSLQPEDFATYYCGAWEYSGGVGIFGQGTKVEIK
2.5e+06
